Would you mind telling me the reported MIC of each entry?
# Test system: S. aureus
# assay.summary: Minimal inhibitory concentration (MIC), broth microdilution
# Type: cell-based, Staphylococcus aureus
# condition.info: Staphylococcus aureus, S. aureus BF5; read-out: Minimum inhibitory concentration
Give bare numbers, in µg/mL.

Example entries and their recorded answers appear below.
{"columns": ["molecule", "measurement.type", "meas.value"],
 "data": [
  ["O=C(O)/C=C/c1ccc(-c2ccc(O)c(C34CC5CC(CC(C5)C3)C4)c2)cc1 [Adarotene]", "MIC", 2],
  ["O=C(O)c1ccc(-c2ccc3cc(O)c(C45CC6CC(CC(C6)C4)C5)cc3c2)cc1 [CD1530]", "MIC", 1]
]}

We next turn to a different molecule, shown below.
[ask] Short answer please: MIC, S. aureus, entry O=C(O)c1ccc2cc(-c3ccc(O)c(C45CC6CC(CC(C6)C4)C5)c3)ccc2c1 [CD437]
[reply] 1
